Each recorded value in this set is attributed to patent US12195482B1.

Biological target: p-AXL (Homo sapiens)
Sequence (P30530 26-894): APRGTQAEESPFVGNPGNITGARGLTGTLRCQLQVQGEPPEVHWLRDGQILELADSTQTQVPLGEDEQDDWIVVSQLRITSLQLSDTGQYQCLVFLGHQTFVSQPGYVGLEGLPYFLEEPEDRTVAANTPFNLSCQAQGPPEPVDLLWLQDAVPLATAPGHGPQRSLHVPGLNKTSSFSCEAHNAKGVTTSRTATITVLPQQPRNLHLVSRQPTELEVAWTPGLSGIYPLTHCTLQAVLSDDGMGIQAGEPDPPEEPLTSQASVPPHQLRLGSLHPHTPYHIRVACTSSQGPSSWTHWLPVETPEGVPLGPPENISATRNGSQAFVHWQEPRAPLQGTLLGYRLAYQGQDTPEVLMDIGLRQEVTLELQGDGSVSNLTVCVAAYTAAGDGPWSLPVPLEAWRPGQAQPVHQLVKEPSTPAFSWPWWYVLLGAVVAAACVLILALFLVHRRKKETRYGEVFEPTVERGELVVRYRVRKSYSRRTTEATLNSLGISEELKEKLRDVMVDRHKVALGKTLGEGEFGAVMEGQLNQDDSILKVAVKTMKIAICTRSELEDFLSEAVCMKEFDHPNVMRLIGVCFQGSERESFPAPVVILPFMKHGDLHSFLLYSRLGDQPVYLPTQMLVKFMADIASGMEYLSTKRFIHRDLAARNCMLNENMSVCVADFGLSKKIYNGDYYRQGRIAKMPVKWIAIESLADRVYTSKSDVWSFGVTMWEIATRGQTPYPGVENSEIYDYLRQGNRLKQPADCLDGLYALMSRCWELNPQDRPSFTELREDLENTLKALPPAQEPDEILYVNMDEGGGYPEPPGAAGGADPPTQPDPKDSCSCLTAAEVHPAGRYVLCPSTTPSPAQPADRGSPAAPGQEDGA
Experiment: Axl phosphorylation inhibition ELISA in HEK293T cells transfected with NanoLuc-tagged AXL
Conditions: 1 h compound incubation, media (OptiMEM)
pIC50: −log10 of the molar value.
parameter-measured: pIC50

Example cases with answers are listed next.
given-smiles: Cc1ccc(C)c(-c2ccc(-c3n[nH]c4ncc(-c5ccc6c(c5)CC[C@@H](N5C7COCC5C7)CC6)cc34)cc2C)n1
parameter-measured: pIC50
measured: 6.00 to 7.00
--
given-smiles: c1cnc(-c2ccc(-c3c[nH]c4ncc(-c5ccc6c(c5)CC[C@@H](N5C7COCC5C7)CC6)cc34)cc2)c(N2CCOCC2)c1
parameter-measured: pIC50
measured: > 7.00
--
given-smiles: COc1ccnc(-c2ccc(-c3n[nH]c4ncc(-c5ccc6c(c5)CC[C@@H](N5C7COCC5C7)CC6)cc34)cc2)c1C
parameter-measured: pIC50
measured: 6.00 to 7.00
--
given-smiles: Cc1cnc(C)c(-c2ccc(-c3c[nH]c4ncc(-c5ccc6c(c5)CC[C@@H](N5C7COCC5C7)CC6)cc34)cc2)n1
parameter-measured: pIC50
measured: > 7.00
--
given-smiles: Cc1cnc(-c2ccc(-c3c[nH]c4ncc(-c5ccc6c(c5)CC[C@@H](N5C7COCC5C7)CC6)cc34)cc2)c(C)n1
parameter-measured: pIC50
measured: > 7.00

## Task Can you share its pIC50? I mean this molecule: `Cn1ccnc1-c1ccc(-c2n[nH]c3ncc(-c4ccc5c(c4)CC[C@@H](N4C6COCC4C6)CC5)cc23)cc1`
## Result > 7.00
